assay: chemical genetic growth profiling, strain panel (AID 1159580);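 note: tested at 20 µM; growth read once vehicle control cultures reached saturation at 30 °C; 1 = growth at the plate median or of vehicle wells; lower values mean less growth of the strain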; details: S. cerevisiae deletion strains, growth OD, locus YLR330W, strain CHS5, active compounds read low
Among all 5,500 compounds or so, about 2,000 (36%) were called active. Not shown: some 18% with an inconclusive outcome. This is one part of the list.
measured endpoint: normalized growth
Numbers only.

Consider the following illustrative entries.
COc1cc(O)c2c(=O)cc(-c3ccc(O)cc3)oc2c1 :: 0.997
COc1ccc(-c2cc(=O)c3c(O)c(OC)c(OC)cc3o2)cc1O :: 0.983

Continue with the next compound.
Sample COc1ccc(-c2cc(=O)c3c(O)cc(O)cc3o2)cc1 — what was its normalized growth?
0.989

====

test: chemical genetic growth profiling, strain panel (AID 1159580); settings: S. cerevisiae deletion strains, growth OD, locus YCL069W, strain vba3, active compounds read low
Screen size: about 5,500 compounds; about 2,000 (36%) were called active. Roughly 18% stayed inconclusive and do not appear here. This is one part of the list.
Can you tell me normalized growth for the items I'm about to list?
Answers are plain numbers.

Consider the following illustrative entries.
CC(C)(C)NCC(O)COc1cccc2c1CCCC2=O (configuration not stated) :: 0.952
CC12CCC(=O)C=C1CCc1ccccc12 (configuration not stated) :: 0.986
CC1(C)C(=O)CC[C@@]2(C)C1C[C@@H](O)[C@@]1(C)C3=CC(=O)O[C@@H](c4ccoc4)[C@]3(C)CCC21 (some centres not stated) :: 1.02

Please state normalized growth for every compound in the list that follows.
1. Cc1cc(N)c2ccccc2[n+]1CCCCCCCCCC[n+]1c(C)cc(N)c2ccccc21
2. Oc1ccc2c3c1OC1[C@@H](O)CC[C@@]4(O)[C@@H](C2)N(CC2CCC2)CC[C@]314 (some centres not stated)

1: 0.0657; 2: 0.993

Please state normalized growth for every compound in the list that follows.
1. COC1=CC(C)[C@@H]2C[C@H]3OC(=O)C[C@H]4C(C)=C(OC)C(=O)C([C@@]34C)[C@@]2(C)C1=O (some centres not stated)
2. Oc1ccc([C@H]2Oc3cc(O)cc(O)c3C[C@H]2O)cc1
3. COc1cccc2c1CCC1=CC(=O)CC[C@@]12C
4. NC[C@H]1O[C@H](O[C@H]2[C@H](O)[C@@H](O[C@H]3O[C@H](CO)[C@@H](O)[C@H](N)[C@H]3O)[C@H](N)C[C@@H]2N)[C@H](N)[C@@H](O)[C@@H]1O
5. N#Cc1c(Cl)cccc1Cl
6. NS(=O)(=O)c1cc2c(cc1C(F)(F)F)NC(Cc1ccccc1)NS2(=O)=O (configuration not stated)

0.981
0.981
0.993
0.989
0.98
1

Please state normalized growth for every compound in the list that follows.
1. O=S(=O)(O)O
2. CC1(C)Oc2ccc3ccc(=O)oc3c2CC1O (configuration not stated)
3. NCC(O)CC(=O)O (configuration not stated)
4. COC(=O)N/N=C\c1c[n+]([O-])c2ccccc2[n+]1[O-]

0.969
0.968
0.984
0.992

Please state normalized growth for every compound in the list that follows.
1. NCCCC(O)(P(=O)(O)O)P(=O)(O)O
2. NC(=O)c1ccccc1O
3. CC(C)C[C@@H](NC(=O)OCC1c2ccccc2-c2ccccc21)C(=O)O
4. OC1(c2ccc(Cl)c(C(F)(F)F)c2)CCN(CCCC(c2ccc(F)cc2)c2ccc(F)cc2)CC1
5. C[C@@H]1CC[C@@]23CCC4(C)[C@@](C=CC5[C@@]6(C)CCC(=O)C(C)(C)C6CC[C@]54C)(OC2=O)C3[C@H]1C (some centres not stated)
6. C[C@@H]1CC[C@@]23CCC4(C)[C@@](C=CC5[C@@]6(C)CC[C@H](O)C(C)(C)C6CC[C@]54C)(OC2=O)C3[C@H]1C (some centres not stated)
7. CC1(C)S[C@@H]2[C@H](NC(=O)[C@@H](N)c3ccc(O)cc3)C(=O)N2[C@H]1C(=O)O

[0.991, 0.974, 0.995, 0.101, 0.997, 1.01, 0.989]

====

assay: chemical genetic growth profiling, strain panel (AID 1159580); details: S. cerevisiae deletion strains, growth OD, locus YMR205C, strain PFK2 (second series)
Among all 5,500 compounds or so, about 2,000 (36%) were called active. Another 18% or so got no clear call; they are omitted. No stated cut-off is given here; in the data, active means normalized growth mostly below about 0.91 (no sharp cut-off); inconclusive means no clear call, values can overlap the other calls; inactive means mostly above about 0.92. The list shows a part of the results.
Pick one and only one: active, inactive

Consider the following illustrative entries.
FC(F)(F)Oc1ccc(OCc2n[nH]c(=S)n2-c2ccc(Cl)cc2)cc1 :: inactive
O=C1/C(=C/c2c[nH]c3ccccc23)CSc2ccccc21 :: inactive
O=C1Nc2ccccc2/C1=C\c1c[nH]c2ccccc12 :: active
FC(F)(F)Sc1ccc(OCc2n[nH]c(=S)n2-c2ccccc2)cc1 :: inactive
O=C1Nc2ccccc2/C1=C\c1cccc2ccccc12 :: inactive

What was the test verdict on COc1ccc(N=C2SCC(c3ccc(C)cc3)=NN2CCO)cc1 ?
inactive

====

test: chemical genetic growth profiling, strain panel (AID 1159580); conditions: S. cerevisiae deletion strains, growth OD, locus YPL153C, strain RAD53, active compounds read low
About 2,000 (36%) of roughly 5,500 compounds were called active. Another 18% or so got no clear call; they are omitted. This is one part of the list.
measured endpoint: normalized growth
Answers are plain numbers.

Consider the following illustrative entries.
O=C(NNc1cc(C(F)(F)F)cc(C(F)(F)F)c1)c1cnc2n(c1=O)CCS2 :: 0.986
O=C1Nc2ccccc2/C1=C\c1c[nH]c2ccccc12 :: 0.124
C/C(=N/NC(N)=S)c1csc(-c2ccccc2)n1 :: 0.789
COc1ccc(N=C2SCC(c3ccc(C)cc3)=NN2CCO)cc1 :: 0.97
FC(F)(F)Sc1ccc(OCc2n[nH]c(=S)n2-c2ccccc2)cc1 :: 0.916

Please state normalized growth for every compound in the list that follows.
1. O=c1[nH][nH]c(=O)n1CCCc1cc2cccc3ccc4cccc1c4c32
2. N/C(=N/OC(=O)Nc1cccc(C(F)(F)F)c1)c1ccc(OC(F)(F)F)cc1
3. O=S(=O)(c1cc(Cl)ccc1Cl)N1CCc2ccccc2C1
4. Cc1cc(-c2onc(C)c2C(=O)Sc2ccccc2)no1

0.963
0.485
1.01
0.756

====

experiment: chemical genetic growth profiling, strain panel (AID 1159580);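 note: tested at 20 µM; growth read once vehicle control cultures reached saturation at 30 °C; 1 = growth at the plate median or of vehicle wells; lower values mean less growth of the strain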; conditions: S. cerevisiae deletion strains, growth OD, locus YGR078C, strain PAC10
In all, about 5,500 compounds went through this assay and about 2,000 (36%) were called active. About 18% were inconclusive and are not listed. No stated cut-off is given here; in the data, active means normalized growth mostly below about 0.91 (no sharp cut-off); inconclusive means no clear call, values can overlap the other calls; inactive means mostly above about 0.92. Some of the results follow.
Pick one and only one: 1 (active), -1 (inactive)

NC[C@H]1O[C@H](O[C@H]2[C@H](O)[C@@H](O[C@H]3O[C@H](CO)[C@@H](O)[C@H](N)[C@H]3O)[C@H](N)C[C@@H]2N)[C@H](N)[C@@H](O)[C@@H]1O :: -1
CC(=O)N1CCN(c2ccc(OC[C@H]3CO[C@](Cn4ccnc4)(c4ccc(Cl)cc4Cl)O3)cc2)CC1 :: 1
Nc1nc2c(ncn2COC(CO)CO)c(=O)[nH]1 :: -1
O=C(O)CCC(=O)N1CCCC1C(=O)O (stereo not given) :: -1

# ---- query molecule ----
What was the test verdict on CCOC(=O)c1nnc2cc(C)nn2c1C ?
-1

====

Can you tell me normalized growth for the items I'm about to list?
experiment: chemical genetic growth profiling, strain panel (AID 1159580);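 note: tested at 20 µM; growth read once vehicle control cultures reached saturation at 30 °C; 1 = growth at the plate median or of vehicle wells; lower values mean less growth of the strain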; details: S. cerevisiae deletion strains, growth OD, locus YOR231W, strain MKK1, active compounds read low
About 2,000 (36%) of roughly 5,500 compounds were called active. Not shown: some 18% with an inconclusive outcome. This is one part of the list.

Consider the following illustrative entries.
CN[C@H]1CC[C@@H](c2ccc(Cl)c(Cl)c2)c2ccccc21 :: 0.988 (inactive)
N#C/C(N=Cc1cc(Cl)cc(Cl)c1O)=C(\C#N)N=Cc1cc(Cl)cc(Cl)c1O :: 0.475 (active)
C[C@H]1O[C@H](O[C@H]2[C@H](O)[C@@H](O)[C@@H](O[C@H]3[C@H](O)[C@@H](O)C(O)O[C@@H]3CO)O[C@@H]2CO)[C@H](O)[C@@H](O)[C@@H]1N[C@H]1C=C(CO)[C@@H](O)[C@H](O)[C@H]1O (some centres not stated) :: 0.953 (inactive)

Please state normalized growth for every compound in the list that follows.
1. COP(N)(=O)SC (configuration not stated)
2. CCn1nc(C(=O)O)c(=O)c2cc3c(cc21)OCO3
3. CC1=C2C(O)C(=O)OC3CC4C(C)(C)C(=O)C=C[C@]4(C)C(CC1)[C@]23C (some centres not stated)
4. CCn1nc(C)cc1C(=O)Sc1cccc(Br)c1

1.05 (inactive)
1 (inactive)
1.03 (inactive)
0.486 (active)

====

Can you tell me normalized growth for the items I'm about to list?
test: chemical genetic growth profiling, strain panel (AID 1159580);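 note: tested at 20 µM; growth read once vehicle control cultures reached saturation at 30 °C; 1 = growth at the plate median or of vehicle wells; lower values mean less growth of the strain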; details: S. cerevisiae deletion strains, growth OD, locus YKR001C, strain vps1, active compounds read low
Among all 5,500 compounds or so, about 2,000 (36%) were called active. Another 18% or so got no clear call; they are omitted. This is one part of the list.
Answers are plain numbers.

C[C@]12CC[C@H](O)C[C@H]1CCC1C2CC[C@]2(C)[C@@H](C3=CC(=O)OC3)[C@@H](O)C[C@]12O (some centres undefined) :: 1.03
C[C@]12CCC3C(CC[C@]4(O)C[C@@H](O)CC[C@]34C=O)[C@@]1(O)CCC2C1=CC(=O)OC1 (some centres undefined) :: 0.986
O=C(CCCN1CCC2(CC1)C(=O)NCN2c1ccccc1)c1ccc(F)cc1 :: 0.999

Continue with the next compound.
Sample Nc1nc(/C(=C/CC(=O)O)C(=O)N[C@@H]2C(=O)N3C(C(=O)O)=CCS[C@H]23)cs1 — what was its normalized growth?
0.981
